measured.target: T1, carcinoembryonic antigen (CEA), form not stated (UniProt P06731 35-685, limits assumed)
T1 sequence (looked up): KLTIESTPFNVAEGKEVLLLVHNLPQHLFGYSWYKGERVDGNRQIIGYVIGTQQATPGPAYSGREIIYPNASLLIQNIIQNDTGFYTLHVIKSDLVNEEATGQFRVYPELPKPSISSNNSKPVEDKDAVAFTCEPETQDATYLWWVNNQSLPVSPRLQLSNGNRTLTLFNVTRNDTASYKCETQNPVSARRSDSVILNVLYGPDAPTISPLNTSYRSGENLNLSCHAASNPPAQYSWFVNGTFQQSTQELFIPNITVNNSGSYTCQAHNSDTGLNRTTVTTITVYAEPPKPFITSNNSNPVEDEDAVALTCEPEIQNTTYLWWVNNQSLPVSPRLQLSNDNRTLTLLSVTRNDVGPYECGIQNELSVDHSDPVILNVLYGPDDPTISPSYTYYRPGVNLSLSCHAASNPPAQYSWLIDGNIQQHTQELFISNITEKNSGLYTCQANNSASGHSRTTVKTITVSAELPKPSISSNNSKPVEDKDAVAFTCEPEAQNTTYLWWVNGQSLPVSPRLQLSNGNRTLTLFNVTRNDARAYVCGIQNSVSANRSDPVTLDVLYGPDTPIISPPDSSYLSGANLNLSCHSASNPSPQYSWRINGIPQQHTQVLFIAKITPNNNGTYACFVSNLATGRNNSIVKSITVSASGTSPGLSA
experiment.summary: not stated; given as a property of the peptide
No end group written: not given here.
readout.type: pKd
As a rule, pKd stands for the negative log10 of the concentration, concentration in M.

[ask] I am curious: what pKd value has been reported for SDWVCEFIKSQWFCNVLASG-HyNic (also: cyclic, bond type and places not given here, also called anti-CEA peptide; CEA specific peptide) [CEA specific, cyclic peptide SDWVCEFIKSQWFCNVLASG] ?
[reply] 6.80

meta.source: patent US20120076728A1
